Origin of measurements: PubChem BioAssay

assay: MELAS cybrid and Rieske KO viability enhancers – cell-based, MELAS cybrids, Rieske KO mouse fibroblasts, CellTiter-Glo, primary screen (AID 1508586); conditions: Rieske KO mouse fibroblast survival, low glucose, CellTiter-Glo 72 h;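 also: test concentration not given here; z relative to plate mean and SD of compound and empty wells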
measuredMetric: z-score
Lab note: write the figure by itself, no unit.

CNC(=O)C(c1ccccc1)N1CCc2cc(OC)c(OC)cc2C1CCc1ccc(C(F)(F)F)cc1 (centres undefined) | 0.101
CCC1OC(=O)C(C)C(OC2C[C@@](C)(OC)C(O)C(C)O2)C(C)C(OC2OC(C)CC(N(C)C)C2O)[C@@](C)(O)CC(C)[C@@H]2NC(COCCOC)OC(C2C)[C@]1(C)O (some centres undefined) | -0.128
OC(CC1c2ccccc2-c2cncn21)C1CCCCC1 (centres undefined) | -0.0844

Entry O=C(O)c1ccc(-c2ccc(F)cc2)cc1 needs its z-score filled in; supply it. -0.109

Entry C[C@@H](OCc1ccccc1)[C@@H]1NC(=O)[C@H]2CN(C(=O)Oc3ccccc3)CCN2C1=O needs its z-score filled in; supply it. -0.114

Entry Cc1ccn2cc(C(=O)N3CCc4c(cc(-c5ccc(OC(F)(F)F)cc5)c(=O)n4C)C3)nc2c1 needs its z-score filled in; supply it. -0.543

Entry COc1cccc2ccc(-c3nnc4ccccn34)nc12 needs its z-score filled in; supply it. 0.957

Entry Cc1cc(Nc2ccc(NC(=O)c3ccc(Nc4ccnc5ccccc45)cc3)cc2)nc(N)n1 needs its z-score filled in; supply it. -1.35

Entry Cc1nc2ccccc2nc1CN1CC(=O)N(C2CCCCC2)CC(OCc2cccnc2)C1 (centres undefined) needs its z-score filled in; supply it. 6.23
